Reference source: paper PMC13170487

molecular target: CFTR-associated ligand (CAL) PDZ domain (UniProt Q9HD26-2 276-362); test: fluorescence polarisation
quantityMeasured: pKi
pKi field: float, defined as -log10 of concentration (mol/L).

Value lookup for pKi; key = WRFKKANSRWPTSII [BT-iCAL36]
5.51
